Every entry's value here was drawn from patent EP4768479A1.

# System Tested: CYP2B6 (Homo sapiens, UniProt P20813)
# Construct: Mixed human liver microsomes; from tissue; host or cells: mixed (pooled) human liver microsomes
# Sequence (P20813 whole entry): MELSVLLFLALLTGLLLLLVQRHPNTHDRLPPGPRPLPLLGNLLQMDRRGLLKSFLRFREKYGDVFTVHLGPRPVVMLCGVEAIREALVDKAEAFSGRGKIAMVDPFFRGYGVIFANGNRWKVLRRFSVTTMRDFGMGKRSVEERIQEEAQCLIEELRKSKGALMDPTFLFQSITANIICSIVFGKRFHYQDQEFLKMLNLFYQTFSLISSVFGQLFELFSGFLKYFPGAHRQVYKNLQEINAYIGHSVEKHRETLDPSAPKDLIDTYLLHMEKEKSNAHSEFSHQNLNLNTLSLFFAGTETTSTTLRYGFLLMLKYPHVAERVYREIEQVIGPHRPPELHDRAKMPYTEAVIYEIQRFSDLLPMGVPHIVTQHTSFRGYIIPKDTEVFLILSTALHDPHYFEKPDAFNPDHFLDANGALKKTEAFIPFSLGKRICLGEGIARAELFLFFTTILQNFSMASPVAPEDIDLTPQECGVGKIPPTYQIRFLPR
# Method: CYP inhibition assay in mixed human liver microsomes
# Assay type: in vitro ADME
# Study Conditions: read-out: Inhibition Rate % CYP2B6
A collection of compounds and their measured inhibition at 10 µM
Number in %, nothing else.

Please review the following examples before continuing.
Compound: CCCCOC(=O)NS(=O)(=O)c1sc(CC(C)C)cc1-c1ccc(Cn2ccnc2)cc1 [Control Compound I, reference compound]
Value Measured: 63.2
//
Compound: Cc1c(CC(C)C)sc(S(=O)(=O)Nc2ncccn2)c1-c1ccc(Cn2ccnc2Cl)cc1
Value Measured: 7.6
//
Compound: Cc1c(CC(C)C)sc(S(=O)(=O)NC(=O)OCCO)c1-c1ccc(Cn2ccnc2C(F)(F)F)cc1
Value Measured: 11.3
//
Compound: COC(=O)NS(=O)(=O)c1sc(CC(C)C)c(C)c1-c1ccc(Cn2ccnc2C(F)(F)F)cc1
Value Measured: 22.2
//
Compound: COC(=O)NS(=O)(=O)c1sc(CC(C)C)c(C)c1-c1ccc(Cn2ccnc2Cl)c(F)c1
Value Measured: 4.3

Query: inhibition at 10 µM; subject: `COC(=O)NS(=O)(=O)c1sc(CC(C)C)c(C)c1-c1ccc(Cn2ccnc2C(C)(C)O)cc1` 3.8

Next compound up: `Cc1c(CC(C)C)sc(S(=O)(=O)NC(=O)OCC(C)(C)O)c1-c1ccc(Cn2ccnc2C(F)(F)F)cc1` 13.7
